Value source: the supplement of paper PMC6555819

- Test system: LXRb homodimer (NR concentration 270 nM)
- Assay Details: PBM binding z-score (relative to random genomic background probes); higher = stronger binding; sequences stand for … in GC…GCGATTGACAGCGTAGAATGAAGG
Recorded Metric: PBM binding z-score

[
  {
    "Sequence": "AGAACGAGGGCAATGAGTTCATAGCACGGGTGGC",
    "Numeric Readout": -0.445
  },
  {
    "Sequence": "CGAACTAGGTCAAAGGAAAGTGAAAGGCGACGTA",
    "Numeric Readout": -0.265
  },
  {
    "Sequence": "CGAACTAGGTAAAGGACAGTGAATCTCCGCACGC",
    "Numeric Readout": -0.59
  },
  {
    "Sequence": "ATATGCAGGTTATCGGGTCATTCAGTTTGCGCAT",
    "Numeric Readout": 0.832
  },
  {
    "Sequence": "TCTAGGAGGACACGAAGGTCAGAGCTTTCCAGAG",
    "Numeric Readout": -0.833
  },
  {
    "Sequence": "ATATGTAGGTTATGGTCATTCAGAAAGTAGGGAA",
    "Numeric Readout": 0.916
  },
  {
    "Sequence": "ATATGTAGGTTATCGGGTCATTCATTTTGCGCAT",
    "Numeric Readout": 1.4
  },
  {
    "Sequence": "ATCGGAAGGTCGAGGTGAGTATAGAGAAAGGGAA",
    "Numeric Readout": 0.134
  },
  {
    "Sequence": "CCTACTGGGCGAAGGTCATTGATCAGTCAAAGCA",
    "Numeric Readout": -0.515
  },
  {
    "Sequence": "CCTTACGGGTCACTCAAGGTTATAGCATCGGAGT",
    "Numeric Readout": -0.133
  },
  {
    "Sequence": "TCATATAGGTAATAGGTGAAAGTCGGTGTGGTAA",
    "Numeric Readout": 0.0131
  },
  {
    "Sequence": "AACGAAAGGTCGACGAGGTGAGTATACACCGTTT",
    "Numeric Readout": 0.0317
  },
  {
    "Sequence": "CGAACTAGGTCAAAGCACAGTGAAAGGCGACGTA",
    "Numeric Readout": -0.247
  },
  {
    "Sequence": "CAACCTAGGTCACCGGAAGGTCAAAGTCCGCATG",
    "Numeric Readout": 1.49
  }
]

---

- Tested on: PPARg:RXRa 270nM:90nM, anti-RXR (NR concentration 270 nM, RXRa partner concentration 90 nM)
- Assay Details: PBM binding z-score (relative to random genomic background probes); higher = stronger binding; sequences stand for … in GC…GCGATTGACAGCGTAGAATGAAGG
Decision: PBM binding z-score >= 7 yields 1, all other cases yield -1.

[
  {
    "Sequence": "CCGAGTAGGTTACGAGAGGGCATTCAGTGCGAAT",
    "Group": -1
  },
  {
    "Sequence": "CCGATTAGGTTACGAGGGGGCATTCAGTGCGAAT",
    "Group": -1
  },
  {
    "Sequence": "CCTTACGGGTCACTTACAGGTTATAGCATTTGGA",
    "Group": -1
  },
  {
    "Sequence": "CTATGTAGGTTAAGGGGGTCATGCAGTTTGAAAG",
    "Group": 1
  },
  {
    "Sequence": "TTAACAAGGTGAAAGGTCGTTGATGCACGCCTTG",
    "Group": 1
  },
  {
    "Sequence": "CGCACTAGGTCACCAGGACAGTGAAGAGGTTGGA",
    "Group": -1
  },
  {
    "Sequence": "ATGGAAAGGTCGTGAGGTGAGTATACAGAAAGGC",
    "Group": -1
  },
  {
    "Sequence": "CTATCTAGGTTAAGGGGGTCATTCAGTTTGAAAG",
    "Group": 1
  },
  {
    "Sequence": "CCTAGCCGGCCAATCTGGGTCACTCAAGGCTTGA",
    "Group": -1
  },
  {
    "Sequence": "CGAACTACGTCACCAGGACAGTGAAGAGGTTGGA",
    "Group": -1
  },
  {
    "Sequence": "ATATGAAGGTTATCGGGTCATTCAGTTTGCGCAT",
    "Group": -1
  },
  {
    "Sequence": "TCGAGTAGGGTACGGGGGCATTCAGGGATGAAGA",
    "Group": -1
  },
  {
    "Sequence": "CTAACTAGGTCACCGGAAGGTCAAAGTCCGCATG",
    "Group": 1
  },
  {
    "Sequence": "ATCGAAACGTCGACGAGGTGAGTATACACCGTTT",
    "Group": -1
  },
  {
    "Sequence": "TCGAGTAGATTACGGGGGCATTCAGGGATGAAGA",
    "Group": -1
  },
  {
    "Sequence": "CCTACTGGGCCATTGAGAGGTCATTGATCATATG",
    "Group": -1
  },
  {
    "Sequence": "CCGAGTAGGTGACGAGGGGGCATTCAGTGCGAAT",
    "Group": -1
  }
]
